Here the recorded growth inhibition is given for each entry.
measurement-notes: NCI Yeast Anticancer Drug Screen. Data for the bub3 strain (AID 167)
condition-label: S. cerevisiae bub3 mutant strain, at 50.0 µM (retest, dose inferred, filed as 5.0), active compounds read high
About 79,000 compounds went through this panel and 15% of them were active in at least one assay; those are over-represented in the sample as a whole.
Enter your answer as a number in %; do not include the unit.

Study these solved cases before continuing.
| compound | result |
| --- | --- |
| Nc1nc(-c2ccccc2)c(-c2ccccc2)c(-c2nc(N)nc(-c3ccccc3)c2-c2ccccc2)n1 | -9 |
| [NH-]c1ccccc1[S-].[NH-]c1ccccc1[S-].[Zn] | 99 |
| CCCCCCC(C)OC(=O)/C=C/c1ccccc1 (stereo not given) | 13 |
| CCOC(=O)c1ccc([N+](=O)[O-])o1 | 49 |

Proceed to the following item.
Input line: Form field: reported growth inhibition of `CC(=O)O[C@]1(C(C)=O)CC[C@H]2[C@@H]3C[C@H](C)C4=CC(=O)NCC[C@]4(C)[C@H]3CC[C@@]21C`
Output line: 92
